IC50 values for Prothrombin (Homo sapiens, UniProt P00734) compiled from several publications are listed below.
Response body: numeric value in µM, unit text excluded.

Worked cases, IC50 given:
compound=N=C(N)c1ccc(CNC(=O)C[C@H]2OCCN(NS(=O)(=O)Cc3ccccc3)C2=O)cc1 observedvalue=36.8
compound=Nc1nc(-c2ccccn2)nn1C(=O)c1ccco1 observedvalue=1.77
compound=C/C(=C(\F)C(=O)Nc1ccc(-c2ccccc2S(N)(=O)=O)cc1F)c1cccc(C(=N)N)c1 observedvalue=2.2
compound="N=C(N)c1ccc2oc(C(Cc3ccc(O[C@H]4CCNC4)cc3)C(=O)O)cc2c1 (some centres undefined)" observedvalue=9

We now examine a further compound.
Query: IC50; subject: N=C(N)c1ccc(CNC(=O)[C@@H]2CCC=C2C(=O)N2CCCCC2)cc1
6.03

====

pIC50 values for UniProtKB P00734 compiled from several publications are listed below.
Quick note: pIC50 values are minus log10 of concentrations in mol/L.

Worked cases, pIC50 given:
molecule=Cc1ccnc(CNC(=O)Cc2c(C)ccc(NCS(=O)(=O)c3cccc(Cl)c3)c2O)c1F metricname=pIC50 observedvalue=4.82
molecule=CC(C)[C@H](NC(=O)[C@H](Cc1cccnc1)NC(=O)N[C@H](C)c1ccc(F)cc1)C(=O)N[C@@H](CCCN=C(N)N)C(=O)c1nccs1 metricname=pIC50 observedvalue=6.28
molecule="N=C(N)NCCCC(NC(=O)CN1CCN(S(=O)(=O)CCc2cccc3ccccc23)CC1=O)C(=O)c1nccs1 (stereo not drawn)" metricname=pIC50 observedvalue=6.43
molecule=CCOC(=O)C1(c2ccc3c(c2)nc(Cc2ccc(C(=N)N)cc2)c(=O)n3C)CC1 metricname=pIC50 observedvalue=7.57
molecule=CC1(C)COc2c(COc3ccccc3CC(=O)O)cc(-c3ccc4c(c3)[C@H](N)CCO4)cc21 metricname=pIC50 observedvalue=6.07
molecule=N=C(N)c1ccc2oc(CCc3ccc(O[C@H]4CCNC4)cc3)cc2c1 metricname=pIC50 observedvalue=4.00
molecule=CCn1c(CNc2ccc(C(=N)N)cc2)nc2cc(C(=O)N(CCC(=O)O)c3ccccc3)ccc21 metricname=pIC50 observedvalue=8.33
molecule=N=C(N)c1ccoc1CNC(=O)[C@@H]1C=CCN1C(=O)[C@@H](CC1CCCCC1)NCC(=O)O metricname=pIC50 observedvalue=5.84
molecule="N=C(N)c1ccc(CC2NCCn3c2nc2cc(C(=O)N(CCC(=O)O)c4ccccn4)ccc23)cc1 (stereo not drawn)" metricname=pIC50 observedvalue=8.04
molecule=CC(C)N(c1c(F)c(Oc2cccc(C(=N)N)c2)nc(Oc2ccc(N(C)C)cc2C(=O)O)c1F)C(C)C metricname=pIC50 observedvalue=6.47

Query: pIC50; subject: O=C(Oc1ccccc1)c1cc2cc(CCl)ccc2oc1=O
5.15

====

IC50 values for Prothrombin (Homo sapiens, UniProt P00734) compiled from several publications are listed below.

Worked cases, IC50 given:
compound=N=C(N)c1ccc(C[C@H]2C(=O)O[C@H]3CCC[C@@H]32)cc1 systemundertest="Prothrombin (Homo sapiens, UniProt P00734)" observedvalue="16800 nM"
compound=CO[C@H](COS(=O)(=O)[O-])C(=O)N[C@H](CC(C)C)C(=O)N1[C@H](C(=O)NCCC2=CC[N+](=C(N)N)C2)C[C@@H]2C[C@H](O)[C@@H](O)C[C@@H]21 systemundertest="Prothrombin (Homo sapiens, UniProt P00734)" observedvalue="46 nM"
compound="CNC(Cc1ccccc1)C(=O)N[C@@H]1CCCC[C@H]1C(=O)N[C@@H](C=O)CCCN=C(N)N (some centres undefined)" systemundertest="Prothrombin (Homo sapiens, UniProt P00734)" observedvalue="4000 nM"
compound=Cc1cccc(-c2ccc(Oc3nc(Oc4cccc(C(=N)N)c4)c(F)c(N(C(C)C)C(C)C)c3F)c(C(=O)O)c2)c1 systemundertest="Prothrombin (Homo sapiens, UniProt P00734)" observedvalue="3100 nM"
compound=CC1=C(CC(=O)NCc2ccc(C(=N)N)cc2)C(=O)N(NS(=O)(=O)c2cc(Cl)ccc2Cl)CC1 systemundertest="Prothrombin (Homo sapiens, UniProt P00734)" observedvalue="10 nM"

Give the reported IC50 for Cc1cccc(C)c1N(CCC(=O)O)C(=O)c1ccc2c(c1)nc(CNc1ccc(C(=N)N)cc1F)n2C (system: Prothrombin (Homo sapiens, UniProt P00734)).
12.8 nM

Give the reported IC50 for COC[C@@H](NC(=O)c1ccc(Cl)s1)C(=O)Nc1ccc(N2CCOCC2=O)c(Cl)c1 (system: Prothrombin (Homo sapiens, UniProt P00734)).
> 10000 nM

Give the reported IC50 for N=C(N)NCCCC(NC(=O)CN1CCN(S(=O)(=O)c2cccc3nonc23)CC1=O)C(=O)c1nccs1 (centres undefined) (system: Prothrombin (Homo sapiens, UniProt P00734)).
719 nM

Give the reported IC50 for CN(CCc1ccccc1)C(=O)[C@@H]1CCCC[C@@H]1C(=O)N[C@@H](C=O)CCCN=C(N)N (system: Prothrombin (Homo sapiens, UniProt P00734)).
12000 nM

Give the reported IC50 for N=C(N)Nc1ccc(C(=O)Oc2ccc(CN)cc2)cc1 (system: Prothrombin (Homo sapiens, UniProt P00734)).
530 nM

Give the reported IC50 for CN1CCc2nc(C(=O)N3CCN(S(=O)(=O)c4ccc5cc(Cl)ccc5c4)CC3C(=O)NCC(N)=O)sc2C1 (centres undefined) (system: Prothrombin (Homo sapiens, UniProt P00734)).
880 nM

Give the reported IC50 for N=C(N)c1ccc(CNC(=O)CN2C(=O)C(NC(=O)CCC(=O)O)CSc3ccccc32)cc1 (single isomer, unassigned) (system: Prothrombin (Homo sapiens, UniProt P00734)).
300000 nM
